Biological target: T1, NBD (nonamer binding domain of RAG1) (mouse, UniProt P15919 384-461)
T1 sequence: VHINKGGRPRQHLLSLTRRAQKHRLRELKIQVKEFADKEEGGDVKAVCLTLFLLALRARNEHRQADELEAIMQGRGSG
Assay: BLI; 1x PBS, 30 C, 1:1 fit; NBD EMSA: 10 mM Tris-HCl pH 7.5, 33 mM KCl, 5 mM CaCl2, 2 mM DTT, 0.1 mg/ml BSA, 6% glycerol, 15 min 30 C; cRAG EMSA: 22.5 mM MOPS-KOH pH 7.0, 20% DMSO, 2.2 mM
Settings: protein: recombinant; tags: N-terminal His6 (pET28a); label: 5' biotin

| binder | Kd |
| --- | --- |
| TTTTTTTTTTTTTTTTTTTTTTTTTTTTTTTTTTT (ssDNA) [biotinylated poly T 35] | 450 nM |
